- experimentalTarget: Troponin, cardiac muscle (Homo sapiens, UniProt P19429+P45379+P63316)
- methodSummary: Fluorescence-based biochemical high throughput dose response assay for activators of the calcium sensitivity of cardiac Regulated Thin Filaments (RTF). [Related pubchem assays (depositor defined):AID493008, AID493018, AID504382, AID504383]
- Format: protein-complex assay
The source made the active and inactive calls.
Labels: active, inactive

molecule	experimentalTarget	assignedLabel
CN(C)/C=C1\C=C2C(=O)c3ccccc3N2C1=O	Troponin, cardiac muscle (Homo sapiens, UniProt P19429+P45379+P63316)	active
CN1C(=O)/C(=C/C=C2\SCCN2C)OC1=S	Troponin, cardiac muscle (Homo sapiens, UniProt P19429+P45379+P63316)	active
COc1c(O)cccc1-c1nnn(CCC(=O)OCC(=O)c2ccccc2)n1	Troponin, cardiac muscle (Homo sapiens, UniProt P19429+P45379+P63316)	inactive
CCN(CC)c1ccc(/C=C2\SC(=N)NC2=O)cc1	Troponin, cardiac muscle (Homo sapiens, UniProt P19429+P45379+P63316)	active
Cn1nc(NC(=O)C2CCC2C(=O)O)c2c(F)cccc21 (stereo not given)	Troponin, cardiac muscle (Homo sapiens, UniProt P19429+P45379+P63316)	inactive

* * *

- experimentalTarget: Endoribonuclease toxin MazF (Escherichia coli K-12)
- Sequence (P0AE70 whole entry): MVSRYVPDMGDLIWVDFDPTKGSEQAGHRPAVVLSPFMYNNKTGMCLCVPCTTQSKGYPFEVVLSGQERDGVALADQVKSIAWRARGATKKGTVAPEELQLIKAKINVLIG
- methodSummary: substrate-only fluorescence increase artefacts – biochemical, single-stranded RNase substrate, counter-screen for MazEF activator project, dose response (AID 588502)
- Format: functional
Active and inactive are the calls of the source.
Labels: true = active, false = inactive

compound	assignedLabel
COc1ccc2c(C)cc(SCC(=O)Nc3cc(C(N)=O)cc(C(N)=O)c3)nc2c1	false
COc1cc2c3nnc(-c4ccccc4)c-3cn(Cc3ccccc3F)c2cc1OC	false
O=C(Nc1cccc([N+](=O)[O-])c1)Nc1ccc2c(c1)CCC2	false
Cc1ccc2c(c1)[C@H]1[C@H](CO2)[C@H](c2ccccc2)[C@]2(C)C(=O)N(Cc3ccc(F)cc3)CC(=O)N12	false
Cc1ccccc1NC(=O)C1c2cccc[n+]2CC(=O)N1c1c(C)cccc1C (stereo unspecified)	false
COc1ccc(/C=N/Nc2ccc([N+](=O)[O-])cc2S(=O)(=O)N2CCN(C)CC2)cc1	true

* * *

Examples of molecules with documented AC50 follow.
- methodSummary: reduction of Shn3 3'UTR-driven luciferase in osteoblasts – cell-based, Clone20 osteoblasts, firefly luciferase, cherry-picked, dose response (AID 624132);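 note: firefly luciferase luminescence from reporter carrying the Shn3 3'UTR in osteoblasts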
- Type: functional
Calls of active or inactive are those of the source.

molecule	AC50
CC(C)(C)c1ccc(CN2C3=NCCCN3c3ccccc32)cc1	836 nM (active)
Cc1ccnc(SCC(=O)Nc2sc3c(c2C#N)CCCC3)n1	955 nM (active)
CCc1nnc(NC(=O)c2nc(S(=O)(=O)Cc3ccc(C)cc3)ncc2Cl)s1	3010 nM (active)
Cc1cc(C)c(S(=O)(=O)N2Cc3ccccc3-n3nncc3C2)c(C)c1	4360 nM (active)
Oc1cccc2cc(Nc3ccccc3)cnc12	644 nM (active)
CCCCC(=O)NC(c1ccccc1)c1ccc2cccnc2c1O (stereo unspecified)	2350 nM (active)
